test: yeast display, Sf9 membrane polyspecificity reagent, FACS + sequencing; frameworks hold sequencing errors
Quantity Kind: polyreactivity (PSR sort gate)

Below, 4 sequences whose answers are already recorded.
**Query** Retrieve polyreactivity (PSR sort gate) measured for `QVQLVESGGGLVQAGGSLRLSCAASGRTFGRYAMGWYRQAPGKERELVAAITRSGSSTYYADSVKGRFTISRDNAKNTVYLQMNSLKPEDTAVYYCAALYGPFYSTGEYWGQGTQVTVSS` and print it.
**Result** high polyreactivity

**Query** Retrieve polyreactivity (PSR sort gate) measured for `QVQLVESGGGLVQAGGSLRLTCAASGRIFSANAMGWYRLAPGKERELVAGIDSGGSTNYADSVKGRFTISGDNAKNTVYLQMNSLKPEDTAVYYCAKYRGRGNTYNGGYDYWGQVTQVTVSS` and print it.
**Result** low polyreactivity

**Query** Retrieve polyreactivity (PSR sort gate) measured for `QVQLVESGGGLVQAGGSLRLSCAASGRIGVNAMGWYRPAPGKERELVAAITGGASTYYADSVKGRFTISRDNAKNTVYLQMNSLKPEDTAVYYCNATGEYFGYLDLDYDYWGQGTQVTVSS` and print it.
**Result** low polyreactivity

**Query** Retrieve polyreactivity (PSR sort gate) measured for `QVQLVESGGGLVPAGGSLRLSCAASGSIFTNAMGWYRQAPGKERELVAAIDANAGDTHYADSVKGRFTISRDNAKNTVYLQMNSLKPEDTAVYSCNADVTERLWTGEDDYWGQGTQVTVSS` and print it.
**Result** low polyreactivity

# context switch: different sequence, same polyreactivity (PSR sort gate)
**Query** Retrieve polyreactivity (PSR sort gate) measured for `QVQLVESGGGLVQAGGSLRLSCAASGRIFYYYAMGWYRQAPGKERELVAAISWRGTSTYYADSVKGRFTISRDNAKNTVYLQMNSLKPEDTAVYYCAARYTKGMYYWGQGTQVSVSS` and print it.
**Result** high polyreactivity
